As shown below, each of these molecules has a reported relative β-galactosidase activity, inducer Ms value.
System: lacZ under control of the tetA promoter (PtetA) in E. coli KM3
Type: cell-based
details: Table 4; metsulfuron 20 ppm; 48 hrs at 30° C.
Please reply with the number alone, leaving off any unit.

Guide cases for relative β-galactosidase activity, inducer Ms, answers given:
# molecule, measured-number
measured = [
    ("L1-24: SU-responsive TetR(B) variant, library L1 hit (protein, Sulfonylurea responsive repressor L1-24) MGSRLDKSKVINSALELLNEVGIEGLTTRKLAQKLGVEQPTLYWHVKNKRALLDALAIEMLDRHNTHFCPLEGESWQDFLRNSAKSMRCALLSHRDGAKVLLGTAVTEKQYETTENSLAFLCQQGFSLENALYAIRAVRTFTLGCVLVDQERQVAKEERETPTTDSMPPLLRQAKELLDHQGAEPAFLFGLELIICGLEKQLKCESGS", 0.4),
    ("L1-22: SU-responsive TetR(B) variant, library L1 hit, SEQ ID NO: 7 (protein, Sulfornylurea responsive repressor L1-22) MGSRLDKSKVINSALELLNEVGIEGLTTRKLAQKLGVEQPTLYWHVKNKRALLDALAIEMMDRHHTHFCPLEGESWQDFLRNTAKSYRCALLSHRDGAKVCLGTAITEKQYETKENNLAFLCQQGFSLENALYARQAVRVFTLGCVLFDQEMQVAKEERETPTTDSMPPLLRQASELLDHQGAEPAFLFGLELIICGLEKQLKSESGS", 0.1),
    ("L1-31: SU-responsive TetR(B) variant, library L1 hit (protein, Sulfonylurea responsive repressor L1-31) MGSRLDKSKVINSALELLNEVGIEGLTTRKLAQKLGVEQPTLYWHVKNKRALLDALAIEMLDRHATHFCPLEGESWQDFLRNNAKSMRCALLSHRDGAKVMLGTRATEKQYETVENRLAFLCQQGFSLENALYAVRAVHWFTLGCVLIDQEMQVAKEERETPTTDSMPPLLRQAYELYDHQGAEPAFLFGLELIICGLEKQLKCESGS", 0.5),
]

Now look at this entry.
Look up relative β-galactosidase activity, inducer Ms: L1-20: SU-responsive TetR(B) variant, library L1 hit, SEQ ID NO: 6 (protein, Sulfonylurea responsive repressor L1-20) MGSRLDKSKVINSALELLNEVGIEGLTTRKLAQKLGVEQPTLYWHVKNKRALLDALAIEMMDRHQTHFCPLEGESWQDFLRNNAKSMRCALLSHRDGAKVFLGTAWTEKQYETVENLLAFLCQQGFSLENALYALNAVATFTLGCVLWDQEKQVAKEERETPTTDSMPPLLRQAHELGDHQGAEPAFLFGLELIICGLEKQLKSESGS
12.4
